Sourced from paper PMC6803640

target_of_assay: T1, His-tagged CIB2, human (TEV protease recognition site and His tag kept) (human, UniProt O75838 1-187)
T1 construct: It was used only in the SPR experiments where CIB2 was captured by its His tag; also called His-CIB2
T1 sequence (looked up): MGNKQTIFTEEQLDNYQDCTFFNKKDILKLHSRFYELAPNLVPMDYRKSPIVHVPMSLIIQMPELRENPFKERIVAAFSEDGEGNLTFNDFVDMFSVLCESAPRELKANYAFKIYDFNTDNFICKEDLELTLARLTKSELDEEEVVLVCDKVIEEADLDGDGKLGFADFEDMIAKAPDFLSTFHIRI
assay_details: SPR; His-tagged CIB2 captured by its His tag on a His-cap chip, then blocked via amine coupling; peptides injected (7.5 µM; α7B_M titrated 230 nM-30 µM); 20 mM HEPES pH 7.5, 150 mM KCl, 1 mM DTT, 1 mM Mg2+, 2 mM Ca2+, 50 µM EDTA, 0.005% Tween; bivalent analyte model and steady state analysis; apparent constants
condition: both partners purified
quantity_kind: Kd (µM)
Numbers only; they are read as µM.

Can you look up the measured Kd of Ac-LLLWKMGFFKRAKHPE-NH2 (integrin α7B, human, membrane proximal segment of the cytoplasmic domain; also called α7B peptide; source: synthetic peptide, bought: Genscript) [α7B_M peptide, membrane proximal segment of the cytoplasmic domain of α7B integrin] for me? 154
